assay.target: elastase (Sus scrofa, UniProt P00772)
Sequence (P00772 27-266): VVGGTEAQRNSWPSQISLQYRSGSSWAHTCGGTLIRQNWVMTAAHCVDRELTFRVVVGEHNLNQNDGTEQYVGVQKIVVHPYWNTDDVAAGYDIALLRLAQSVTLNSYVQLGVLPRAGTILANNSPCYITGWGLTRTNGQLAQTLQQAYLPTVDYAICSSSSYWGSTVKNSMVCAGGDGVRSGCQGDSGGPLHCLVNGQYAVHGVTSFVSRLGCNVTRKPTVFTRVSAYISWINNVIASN
assay.name: in vitro
assay.setup: isolated enzyme elastase, pH 8, Residual peak area (%)/elastase
quantity: remaining at 0.5 h, 60 μM (%)
A number alone suffices; assume %.

Exercise: What does the record list as remaining at 0.5 h, 60 μM for CC(C)C[C@H](NC(=O)[C@H](Cc1ccc(O)cc1)NC(=O)[C@H](CCC(=O)O)NC(=O)[C@H](CCC(=O)O)NC(=O)[C@H](Cc1c[nH]c2ccccc12)NC(=O)[C@H](CO)NC(=O)[C@@H](NC(=O)[C@H](Cc1ccccc1)NC(=O)[C@@H](NC(=O)[C@@H](N)[C@@H](C)O)C(C)C)[C@@H](C)O)C(=O)N[C@@H](CC(=O)O)C(=O)N[C@@H](Cc1c[nH]c2ccccc12)C(=O)N[C@H](C(=O)O)C(C)C [PCSK9_1, reference compound] ?
Solution: 52.9

* * *

assay.target: bovine trypsin (Bos taurus, UniProt P00760)
Sequence (P00760 24-246): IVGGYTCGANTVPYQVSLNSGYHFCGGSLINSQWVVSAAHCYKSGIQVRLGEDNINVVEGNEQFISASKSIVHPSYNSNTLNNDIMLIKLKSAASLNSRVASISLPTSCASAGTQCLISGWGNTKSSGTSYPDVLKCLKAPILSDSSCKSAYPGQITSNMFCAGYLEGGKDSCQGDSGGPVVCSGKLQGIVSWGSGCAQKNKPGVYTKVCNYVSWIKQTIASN
assay.name: Trypsin inhibitory activity of peptides (BApNA hydrolysis, OD405; IC50, Ki, residual activity)
Type: biochemical
assay.setup: Ki=IC50/(1+S/Km), Km 0.33 mM; read-out: Ki
Bridge positions count the residues as written; N and C are the ends. Square brackets hold non-standard residues; d marks the D form. Peptide text beside a SMILES is read from it. Hyp = O=C(O)[C@@H]1C[C@@H](O)CN1
quantity: Ki (nM)
A number alone suffices; assume nM.

Exercise: What does the record list as Ki for CC[C@H](C)[C@@H]1NC(=O)[C@H](CO)NC(=O)[C@H](CCCCN)NC(=O)[C@H]([C@@H](C)O)NC(=O)[C@@H](NC(=O)[C@@H](N)CCCNC(=N)N)CSSC[C@@H](C(=O)N[C@@H](Cc2c[nH]cn2)C(=O)O)NC(=O)[C@H](CCC(N)=O)NC(=O)[C@@H]2CCCN2C(=O)[C@@H]2CCCN2C1=O [BT63] (H-RCTKSIPPQCH-OH; disulfide 2-10; N-terminus and C-terminus assumed) ?
Solution: 20

Exercise: What does the record list as Ki for CC[C@H](C)[C@@H]1NC(=O)[C@H](CO)NC(=O)[C@H](CCCCN)NC(=O)[C@H]([C@@H](C)O)NC(=O)[C@@H](NC(=O)[C@@H](N)CCCNC(=N)N)CSSC[C@@H](C(=O)N[C@@H](Cc2ccccc2)C(=O)O)NC(=O)[C@H](Cc2c[nH]cn2)NC(=O)[C@@H]2CCCN2C(=O)[C@@H]2CCCN2C1=O [BT62] (H-RCTKSIPPHCF-OH; disulfide 2-10; N-terminus and C-terminus assumed) ?
Solution: 10

Exercise: What does the record list as Ki for CC[C@H](C)[C@@H]1NC(=O)[C@@H]2CCCN2C(=O)[C@@H]2C[C@@H](O)CN2C(=O)[C@H]([C@@H](C)CC)NC(=O)[C@H](CO)NC(=O)[C@H](CCCCN)NC(=O)[C@H]([C@@H](C)O)NC(=O)[C@H](C)NC(=O)[C@H](CCCNC(=N)N)NC(=O)[C@H](C)NC(=O)[C@@H](N)CSSC[C@@H](C(=O)N[C@@H](Cc2ccccc2)C(=O)O)NC1=O [BT69] (H-CARATKSI[Hyp]PICF-OH; disulfide 1-12; C-terminus assumed) ?
Solution: 10

Exercise: What does the record list as Ki for CC[C@H](C)[C@@H]1NC(=O)[C@@H]2CCCN2C(=O)[C@@H]2CCCN2C(=O)[C@H]([C@@H](C)CC)NC(=O)[C@H](CO)NC(=O)[C@H](CCCCN)NC(=O)[C@H]([C@@H](C)O)NC(=O)[C@H](C)NC(=O)[C@H](CCCNC(=N)N)NC(=O)[C@H](CO)NC(=O)[C@@H](N)CSSC[C@@H](C(=O)N[C@@H](Cc2ccccc2)C(=O)O)NC1=O [BT75] (H-CSRATKSIPPICF-OH; disulfide 1-12; N-terminus and C-terminus assumed) ?
Solution: 8.5

Exercise: What does the record list as Ki for CC[C@H](C)[C@@H]1NC(=O)[C@@H]2CCCN2C(=O)[C@@H]2CCCN2C(=O)[C@H]([C@@H](C)CC)NC(=O)[C@H](CO)NC(=O)[C@H](CCCCN)NC(=O)[C@H]([C@@H](C)O)NC(=O)[C@H](CC(C)C)NC(=O)[C@H](CCCNC(=N)N)NC(=O)CNC(=O)[C@@H](N)CSSC[C@@H](C(=O)N[C@@H](Cc2ccccc2)C(=O)O)NC1=O [BT48] (H-CGRLTKSIPPICF-OH; disulfide 1-12; N-terminus and C-terminus assumed) ?
Solution: 40

Provenance of the data: patent US20230416329A1
